Tested on: NCI-H460 lung
assay-info: NCI-60 one-dose screen, 48 h
assay-conditions: 10 µM unless noted
This is part of a sample that, as a whole, favours compounds with a hit. Of some 83,000 tested, about 20% had one in any assay. Active and inactive are the calls of the source. The calls were made as follows: active = growth percent below 10; inactive = the rest.
Labels: active, inactive

structure-smiles	assigned-class
NCCNc1nc2ccccc2c2c(=O)c3cc(F)ccc3sc12	inactive
CSc1ccc2c(c1)c(CCN)c(C)n2Cc1ccc(Cl)c(Cl)c1	active
COc1ccc(C(=O)C(C)C)c2ccccc12	inactive
N#Cc1cccc(NC(=O)c2cc(-c3ccc(F)cc3F)ccc2O)c1	active
COc1ccc(-c2csc(NC(=O)N3CCN(c4cc5c(cc4F)c(=O)c(C(=O)O)cn5C4CC4)CC3)n2)cc1	active
COc1ccc(C(=O)N=Nc2c(O)n(C)c3ccccc23)cc1	inactive

====

System: UACC-62 melanoma
assay-info: NCI-60 one-dose screen, 48 h (100 = growth as untreated, 0 = no growth, -100 = all killed)
assay-conditions: 10 µM unless noted
About 83,000 compounds went through this panel and 20% of them were active in at least one assay; those are over-represented in the sample as a whole.
# thresholds on growth define classes: low group = under 30%, middle group = from 30% up to 90%, high group = 90% and over

compound	assigned-class
O=C(Nc1ccc(Cl)cc1F)c1cc(Cl)ccc1O	low group
O=C(O)c1cn(C2CC2)c2cc(N3CCN(C(=O)Nc4nc(-c5ccccc5)cs4)CC3)c(F)cc2c1=O	low group
CCOc1ccc2nc(SCc3nc4n(n3)S(=O)(=O)c3ccccc3N4C)sc2c1	low group
COc1cc(C(=O)c2cnc(-c3cccc4[nH]ccc34)[nH]2)cc(OC)c1OC	middle group
O=C1c2ccccc2NC(n2sc3ccccc3c2=O)N1c1ccccc1 (stereo not given)	high group
COc1ccc2sc3c(NCCO)nc4ccccc4c3c(=O)c2c1	high group
COc1cc(C(=O)/C=C/c2ccc(OCCCCCC[P+](c3ccccc3)(c3ccccc3)c3ccccc3)cc2)cc(OC)c1OC	low group
COc1cc(C2CC(c3cccc(Br)c3)=NN2C(C)=O)cc(OC)c1OC (stereo not given)	low group
N[C@@H](Cc1ccccc1)[C@@H](O)C(=O)NCc1ccc(F)cc1	high group
CCC(=O)Nc1ccc(-c2nc(-c3cccc(OC)c3)c(-c3ccnc(Br)c3)[nH]2)cc1	middle group
CCOC(=O)c1nc(Nc2ccc(C(C)=O)cc2)sc1C	high group
Cc1[nH]c(C(=O)Nc2ccc(C(=O)NCCN)cc2OC(C)C)c(Cl)c1Cl	middle group

====

Test system: HCT-116 colon
assay-info: NCI-60 one-dose screen, 48 h
assay-conditions: 10 µM unless noted
Compounds without any hit were thinned out: in the full panel of roughly 83,000, 20% have a hit. Calls of active or inactive are those of the source. The calls were made as follows: active = growth percent below 10; inactive = the rest.
Labels: active, inactive

structure-smiles	assigned-class
COc1cccc(-c2nc(-c3ccc(NS(=O)(=O)c4ccccc4)cc3)[nH]c2-c2ccnc(Br)c2)c1	inactive
c1ccc2c(c1)Nc1ccncc1S2	inactive
Cc1cc2[nH]c(=O)c3c4ncccc4cn3c2cc1C	active
O=C(CCN1C(=O)/C(=C/c2ccc(O)cc2)SC1=S)Nc1ccccc1	inactive
C[C@H](C(=O)Nc1ccc(S(N)(=O)=O)cc1)S(=O)(=O)c1ccccc1	inactive
CCN(CC)Cc1cc(Nc2c3ccc(Cl)cc3nc3ccc(OC)cc23)ccc1O	inactive
